Just for reference, ChEMBL document CHEMBL1201862 is where these values come from.

Target: Caspase-6 (Homo sapiens)
Sequence (P55212 whole entry): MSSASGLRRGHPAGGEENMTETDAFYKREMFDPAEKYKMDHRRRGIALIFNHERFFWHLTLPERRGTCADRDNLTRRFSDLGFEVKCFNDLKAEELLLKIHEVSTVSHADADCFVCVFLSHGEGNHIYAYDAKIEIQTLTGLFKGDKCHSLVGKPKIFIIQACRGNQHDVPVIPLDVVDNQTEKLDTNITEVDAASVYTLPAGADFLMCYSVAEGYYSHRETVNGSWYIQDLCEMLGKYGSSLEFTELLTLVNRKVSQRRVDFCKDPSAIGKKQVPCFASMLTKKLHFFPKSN
Test: human caspase-6 inhibitors, dose response, biochemical, VEID-R110 fluorescence, cherry-pick (AID 720632)
Active and inactive are the calls of the source.
Please go through the items and note down their AC50.

For "O=C(O)/C(=C\c1cccc([N+](=O)[O-])c1)c1ccc(S(=O)(=O)N2CCCCC2)s1" the compound record lists AC50 as 13.9 µM (active)

For "Cc1cc(=O)n2c3c(c4c(cc13)c(CN(C)C)cc(=O)n4C)OC2" the compound record lists AC50 as 4.06 µM (active)

For O=C(O)CC(CCc1ccccc1)OC1OC(CO)C(O)C(O)C1O (configuration not stated) the compound record lists AC50 as 0.283 µM (active)

For "Cc1ccc(S(=O)(=O)Nc2csc(C)c2C(=O)O)cc1" the compound record lists AC50 as 4.99 µM (active)

For "O=S(=O)(Nc1ccccc1Cl)c1cccc2nsnc12" the compound record lists AC50 as 25.9 µM (active)

For "CO[C@H]1CN(C)C(=O)c2ccc(NS(=O)(=O)c3cccc(Cl)c3)cc2OC[C@@H](C)NC[C@H]1C" the compound record lists AC50 as 19.7 µM (active)

For "N#Cc1cc2ccc(N3CCOCC3)cc2cc1C#N" the compound record lists AC50 as 29.9 µM (active)

* * *

System: BJ
Assay: cytotoxicity toward BJ-TERT fibroblasts, dose response, cell-based, RAS-independent, luminescence (AID 1933)
Assay type: functional
Conditions: Homo sapiens
Active and inactive are the calls of the source.
Please go through the items and note down their EC50.

For "Cc1ccc(/N=C/c2c(C)[nH]n(-c3nc4ccccc4[nH]3)c2=O)cc1" the compound record lists EC50 as 2.84 µM (inconclusive)

For "COc1ccccc1NC1=NC(=O)/C(=C/c2ccc(N(C)C)cc2)S1" the compound record lists EC50 as 1.91 µM (active)

For COc1ccccc1C1C2=C(O)OCC2=Nc2cc3c(cc21)OCO3 (centres undefined) the compound record lists EC50 as 6.64 µM (inconclusive)

For "CCc1nc(C)cn1S(=O)(=O)c1cc([N+](=O)[O-])ccc1Cl" the compound record lists EC50 as 8.45 µM (inconclusive)

* * *

Please go through the items and note down their AC50.
Molecular target: UniProtKB P07900
Type: functional, organism-based
Activity calls are given as the source filed them.

For "Cc1ccc(/N=C/c2c(C)[nH]n(-c3nc4ccccc4[nH]3)c2=O)cc1" the compound record lists AC50 as 5.84 µM (active)

For "CN(C)C(=S)SSC(=S)N(C)C" the compound record lists AC50 as 7.74 µM (active)

For "O=C(Nc1nc(-c2ccccn2)cs1)c1ncc(Cl)c(Cl)c1Cl" the compound record lists AC50 as 3.55 µM (active)

For "O=C(/C=C/c1ccc([N+](=O)[O-])cc1)c1ccccc(=O)c1O" the compound record lists AC50 as 1.54 µM (active)

For "O=c1oc(-c2ccccc2)cc(Cl)c1Cl" the compound record lists AC50 as 2.64 µM (active)

For "CC(C)N1C(=O)/C(=C\c2nc(O)c3ccccc3n2)c2ccccc21" the compound record lists AC50 as 5.37 µM (active)
